biological target: HIF-1 (HIF-1alpha/HIF-1beta (ARNT) heterodimer) (Homo sapiens?, UniProt Q16665;P27540 Q16665:1-826,P27540:2-789); assay: competition; TransAM; details: protein: extract; tags: none (endogenous, nuclear extract)
Sequence (Q16665 whole entry, chain 1 of 2): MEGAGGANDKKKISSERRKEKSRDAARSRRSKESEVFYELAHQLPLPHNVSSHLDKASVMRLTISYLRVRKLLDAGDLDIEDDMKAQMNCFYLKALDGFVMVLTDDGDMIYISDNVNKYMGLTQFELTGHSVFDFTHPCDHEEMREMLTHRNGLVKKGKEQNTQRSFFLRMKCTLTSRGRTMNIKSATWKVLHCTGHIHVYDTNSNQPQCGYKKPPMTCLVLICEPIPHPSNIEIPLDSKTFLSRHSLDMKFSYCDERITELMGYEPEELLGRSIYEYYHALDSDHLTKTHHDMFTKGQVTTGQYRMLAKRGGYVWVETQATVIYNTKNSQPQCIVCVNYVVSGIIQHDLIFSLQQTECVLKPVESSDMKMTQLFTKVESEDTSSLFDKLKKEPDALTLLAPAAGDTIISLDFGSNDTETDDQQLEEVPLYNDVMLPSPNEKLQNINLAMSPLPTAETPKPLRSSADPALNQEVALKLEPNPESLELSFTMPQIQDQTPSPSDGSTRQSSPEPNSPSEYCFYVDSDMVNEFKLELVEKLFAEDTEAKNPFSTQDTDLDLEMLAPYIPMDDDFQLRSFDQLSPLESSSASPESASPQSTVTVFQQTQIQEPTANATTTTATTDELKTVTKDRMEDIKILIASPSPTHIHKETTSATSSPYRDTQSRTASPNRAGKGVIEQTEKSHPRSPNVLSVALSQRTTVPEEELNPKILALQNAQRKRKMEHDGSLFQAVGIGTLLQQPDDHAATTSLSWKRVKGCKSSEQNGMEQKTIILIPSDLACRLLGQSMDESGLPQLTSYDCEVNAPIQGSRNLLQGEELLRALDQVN
Sequence (P27540 2-789, chain 2 of 2): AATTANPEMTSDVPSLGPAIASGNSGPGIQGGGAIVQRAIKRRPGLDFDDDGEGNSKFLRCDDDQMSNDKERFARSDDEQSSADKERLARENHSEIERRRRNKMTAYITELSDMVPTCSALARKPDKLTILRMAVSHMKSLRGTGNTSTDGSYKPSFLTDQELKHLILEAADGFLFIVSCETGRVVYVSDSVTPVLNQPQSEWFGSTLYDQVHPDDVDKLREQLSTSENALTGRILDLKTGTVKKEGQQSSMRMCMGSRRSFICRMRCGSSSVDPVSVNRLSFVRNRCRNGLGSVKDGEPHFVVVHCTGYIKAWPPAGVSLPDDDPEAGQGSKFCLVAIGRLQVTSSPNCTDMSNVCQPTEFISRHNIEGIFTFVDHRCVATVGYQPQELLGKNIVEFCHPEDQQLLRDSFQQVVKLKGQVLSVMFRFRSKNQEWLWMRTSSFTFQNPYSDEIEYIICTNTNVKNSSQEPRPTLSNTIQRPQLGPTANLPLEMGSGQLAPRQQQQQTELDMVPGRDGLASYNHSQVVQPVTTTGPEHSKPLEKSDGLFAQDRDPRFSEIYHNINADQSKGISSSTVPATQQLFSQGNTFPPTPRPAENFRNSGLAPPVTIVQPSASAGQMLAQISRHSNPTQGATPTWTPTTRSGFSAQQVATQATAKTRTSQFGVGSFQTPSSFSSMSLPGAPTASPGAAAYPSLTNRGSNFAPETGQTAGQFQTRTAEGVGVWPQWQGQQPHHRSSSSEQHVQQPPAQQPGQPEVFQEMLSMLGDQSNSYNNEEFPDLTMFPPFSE

binder | binding signal (ratio)
decoy 971 (dsDNA) DNA 1: CCAGTGTACGTGCCTCAGG DNA 2: CCTGAGGCACGTACACTGG | 1.05
decoy 855/856 (dsDNA) DNA 1: GTGTGTACGTGCAGGAAA DNA 2: TTTCCTGCACGTACACAC | 1.07
decoy 859/860 (dsDNA) DNA 1: ACCGTACGTGCTGATC DNA 2: GATCAGCACGTACGGT | 2.37
decoy 811/812 (dsDNA) DNA 1: ACGCTGAGTGCGTGCGGGAC DNA 2: GTCCCGCACGCACTCAGCGT | 3.9
decoy 851/852 (dsDNA) DNA 1: CGGAGTACGTGACGGAGC DNA 2: GCTCCGTCACGTACTCCG | 1.41
decoy 933 (dsDNA) DNA 1: CCAGCGTATGTGCCTCAGG DNA 2: CCTGAGGCACATACGCTGG | 3.47
